Reference for the values: ChEMBL document CHEMBL4811246

# Tested on: PC-3
# Test: Cytotoxicity against human PC-3 cells assessed as reduction in cell viability measured upto 72 hrs by MTT assay
# Assay type: functional, cell-based
# Condition Description: PC-3, 72 h

# Compound, Assay Target, Units, Comparative Sign, IC50
measured = [
    ("CCc1cccc2c3c([nH]c12)C(CC)(CC(=O)OCCC[Se]C#N)OCC3 (configuration not stated)", "PC-3", "µM", "=", 31.4),
    ("CC(C(=O)OCCC[Se]C(F)(F)F)c1cccc(C(=O)c2ccccc2)c1 (configuration not stated)", "PC-3", "µM", "=", 8.8),
    ("O=c1[nH]cc(F)c(=O)[nH]1", "PC-3", "µM", "=", 9.5),
    ("CC(C(=O)OCCC[Se]C(F)(F)F)c1ccc(-c2ccccc2)c(F)c1 (configuration not stated)", "PC-3", "µM", "=", 3.3),
    ("COc1ccc2c(c1)c(CC(=O)OCCC[Se]C(F)(F)F)c(C)n2C(=O)c1ccc(Cl)cc1", "PC-3", "µM", "=", 7.8),
    ("COc1ccc2cc(C(C)C(=O)OCCC[Se]C(F)(F)F)ccc2c1 (configuration not stated)", "PC-3", "µM", "=", 18.4),
    ("N#C[Se]CCCOC(=O)c1ccccc1Nc1cccc(C(F)(F)F)c1", "PC-3", "µM", "=", 7.5),
    ("CCc1cccc2c3c([nH]c12)C(CC)(CC(=O)OCCC[Se]C(F)(F)F)OCC3 (configuration not stated)", "PC-3", "µM", "=", 19.7),
    ("COc1ccc2c(c1)c(CC(=O)OCCC[Se]C#N)c(C)n2C(=O)c1ccc(Cl)cc1", "PC-3", "µM", "=", 21.8),
    ("COc1ccc2cc(C(C)C(=O)OCCC[Se]C#N)ccc2c1 (configuration not stated)", "PC-3", "µM", "=", 22),
    ("CC(C(=O)OCCC[Se]C#N)c1ccc(-c2ccccc2)c(F)c1 (configuration not stated)", "PC-3", "µM", "=", 19.7),
    ("Cc1cccc(Nc2ccccc2C(=O)OCCC[Se]C(F)(F)F)c1C", "PC-3", "µM", "=", 24.5),
    ("CC(C(=O)OCCC[Se]C#N)c1cccc(C(=O)c2ccccc2)c1 (configuration not stated)", "PC-3", "µM", "=", 12.6),
    ("CC(C)Cc1ccc(C(C)C(=O)OCCC[Se]C(F)(F)F)cc1 (configuration not stated)", "PC-3", "µM", "=", 10.4),
    ("O=C(OCCC[Se]C(F)(F)F)c1ccccc1Nc1cccc(C(F)(F)F)c1", "PC-3", "µM", "=", 5.8),
    ("CC(=O)Oc1ccccc1C(=O)O", "PC-3", "µM", ">", 50),
    ("CC1=C(CC(=O)OCCC[Se]C(F)(F)F)c2cc(F)ccc2/C1=C\\c1ccc([S+](C)[O-])cc1 (configuration not stated)", "PC-3", "µM", "=", 11.6),
    ("CC(C)Cc1ccc(C(C)C(=O)O)cc1 (configuration not stated)", "PC-3", "µM", ">", 50),
    ("CC(C)Cc1ccc(C(C)C(=O)OCCC[Se]C#N)cc1 (configuration not stated)", "PC-3", "µM", "=", 22.5),
    ("CC1=C(CC(=O)OCCC[Se]C#N)c2cc(F)ccc2/C1=C\\c1ccc([S+](C)[O-])cc1 (configuration not stated)", "PC-3", "µM", "=", 22.3),
    ("COc1ccc2cc([C@H](C)C(=O)O)ccc2c1", "PC-3", "µM", ">", 50),
    ("CC(=O)Oc1ccccc1C(=O)OCCC[Se]C#N", "PC-3", "µM", "=", 11.2),
]
